# measurement_target: T1, full length human DLL4 (human, UniProt Q9NR61 27-685)
# T1 construct: whole, on cells; also called native DLL4 expressed in HEK293 cells
# T1 sequence (Q9NR61 27-685): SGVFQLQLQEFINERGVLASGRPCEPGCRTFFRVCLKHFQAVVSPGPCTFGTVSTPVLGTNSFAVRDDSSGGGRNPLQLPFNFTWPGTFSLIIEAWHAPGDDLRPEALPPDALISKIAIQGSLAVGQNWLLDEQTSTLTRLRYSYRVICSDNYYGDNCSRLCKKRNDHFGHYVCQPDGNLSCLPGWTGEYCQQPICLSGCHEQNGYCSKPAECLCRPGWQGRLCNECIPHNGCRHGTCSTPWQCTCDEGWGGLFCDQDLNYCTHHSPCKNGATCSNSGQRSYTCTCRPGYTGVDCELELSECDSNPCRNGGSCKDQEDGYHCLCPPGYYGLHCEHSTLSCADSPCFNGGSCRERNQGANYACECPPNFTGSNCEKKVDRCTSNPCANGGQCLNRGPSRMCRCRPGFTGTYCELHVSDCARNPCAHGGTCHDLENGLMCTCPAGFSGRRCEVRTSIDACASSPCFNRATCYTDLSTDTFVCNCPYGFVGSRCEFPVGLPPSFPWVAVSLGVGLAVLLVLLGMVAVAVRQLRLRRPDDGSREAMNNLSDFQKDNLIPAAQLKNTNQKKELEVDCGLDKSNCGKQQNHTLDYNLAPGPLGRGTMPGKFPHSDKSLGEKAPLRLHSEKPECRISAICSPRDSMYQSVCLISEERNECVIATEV
# test_protocol: FACS titration, HEK293 cells with human DLL4
property_label: Kd (nM)
Respond with the bare value in nM.

Reference set (3 entries):
binder="21H3 IgG1 (antibody, V domains shown, Formatted as IgG1) VH: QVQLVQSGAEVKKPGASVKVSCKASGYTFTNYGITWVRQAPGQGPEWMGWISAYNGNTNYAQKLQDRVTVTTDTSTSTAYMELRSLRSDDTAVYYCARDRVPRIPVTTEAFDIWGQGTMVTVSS VL: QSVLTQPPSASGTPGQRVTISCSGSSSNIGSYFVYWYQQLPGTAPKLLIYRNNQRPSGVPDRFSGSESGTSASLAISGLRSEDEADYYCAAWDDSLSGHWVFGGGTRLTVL" quantitative_readout=0.103
binder="9G8 (antibody, IgG4, V domains shown, Fully human; used for IgG4 rows and where no isotype is printed; also called 9G8 IgG4) VH: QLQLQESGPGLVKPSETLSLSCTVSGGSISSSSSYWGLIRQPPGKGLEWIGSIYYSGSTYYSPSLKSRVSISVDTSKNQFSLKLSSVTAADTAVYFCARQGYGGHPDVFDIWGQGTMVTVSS VL: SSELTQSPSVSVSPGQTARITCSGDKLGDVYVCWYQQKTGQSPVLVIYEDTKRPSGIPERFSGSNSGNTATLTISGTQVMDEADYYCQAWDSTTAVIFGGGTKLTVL" quantitative_readout=0.999
binder="4B4 IgG1 (antibody, V domains shown, Formatted as IgG1) VH: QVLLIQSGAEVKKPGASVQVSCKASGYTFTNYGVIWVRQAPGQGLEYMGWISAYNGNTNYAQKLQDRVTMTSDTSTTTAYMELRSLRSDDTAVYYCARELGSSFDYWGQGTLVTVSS VL: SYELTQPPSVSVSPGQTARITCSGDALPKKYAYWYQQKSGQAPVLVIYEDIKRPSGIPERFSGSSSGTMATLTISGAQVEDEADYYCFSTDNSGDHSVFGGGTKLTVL" quantitative_readout=0.157

2H10 (antibody, IgG4, V domains shown, Fully human; used for IgG4 rows and where no isotype is printed; also called 2H10 IgG4) VH: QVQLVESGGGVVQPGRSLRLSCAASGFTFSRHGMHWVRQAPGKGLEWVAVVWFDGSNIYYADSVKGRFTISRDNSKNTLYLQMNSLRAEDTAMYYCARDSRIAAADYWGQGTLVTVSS VL: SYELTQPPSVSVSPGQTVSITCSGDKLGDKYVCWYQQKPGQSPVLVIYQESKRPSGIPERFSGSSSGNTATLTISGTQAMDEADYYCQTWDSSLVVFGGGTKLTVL yielded Kd of 0.882

In plain terms, 4B4 (antibody, IgG4, V domains shown, Fully human; used for IgG4 rows and where no isotype is printed; also called 4B4 IgG4; 4B4.1) VH: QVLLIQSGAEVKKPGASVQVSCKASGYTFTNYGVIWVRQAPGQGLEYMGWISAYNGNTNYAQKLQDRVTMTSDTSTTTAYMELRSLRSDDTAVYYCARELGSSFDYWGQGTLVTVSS VL: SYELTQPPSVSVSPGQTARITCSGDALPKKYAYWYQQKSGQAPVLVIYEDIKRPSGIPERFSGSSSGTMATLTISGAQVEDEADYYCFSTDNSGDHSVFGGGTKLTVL has a documented Kd of 0.516

// sample 21H3 (antibody, IgG4, V domains shown, Fully human; used for IgG4 rows and where no isotype is printed; also called 21H3 IgG4) VH: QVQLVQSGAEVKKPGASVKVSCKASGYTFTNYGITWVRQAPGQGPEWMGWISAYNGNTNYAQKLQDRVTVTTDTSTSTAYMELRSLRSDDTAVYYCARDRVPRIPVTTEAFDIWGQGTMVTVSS VL: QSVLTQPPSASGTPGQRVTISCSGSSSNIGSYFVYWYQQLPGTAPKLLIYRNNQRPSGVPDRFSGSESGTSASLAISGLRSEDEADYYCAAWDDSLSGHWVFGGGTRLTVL , its Kd was 0.359

Memo: 4B4 IgG2 (antibody, V domains shown, Formatted as IgG2) VH: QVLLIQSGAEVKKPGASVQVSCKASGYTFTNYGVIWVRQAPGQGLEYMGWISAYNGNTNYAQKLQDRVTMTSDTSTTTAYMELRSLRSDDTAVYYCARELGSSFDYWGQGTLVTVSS VL: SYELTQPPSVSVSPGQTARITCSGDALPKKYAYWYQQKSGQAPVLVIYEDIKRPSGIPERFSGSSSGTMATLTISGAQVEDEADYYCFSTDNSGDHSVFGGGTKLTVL , reported Kd: 0.232

The binder 21H3 IgG2 (antibody, V domains shown, Formatted as IgG2) VH: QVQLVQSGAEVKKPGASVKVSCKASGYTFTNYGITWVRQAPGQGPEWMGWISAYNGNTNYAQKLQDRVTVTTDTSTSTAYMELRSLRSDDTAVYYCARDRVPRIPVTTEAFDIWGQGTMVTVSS VL: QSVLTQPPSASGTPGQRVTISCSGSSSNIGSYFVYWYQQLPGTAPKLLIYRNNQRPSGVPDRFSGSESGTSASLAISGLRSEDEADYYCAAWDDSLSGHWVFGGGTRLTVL showed Kd equal to 0.32

All figures here come from patent US20100196385A1.
